- study system: Mu-type opioid receptor (Mus musculus)
- assay info: Antagonism of opioid analgesia using a mouse writhing model to block morphine ([…]) induced mu-opioid receptor (subcutaneously dosed)
- Assay type: functional, organism-based
measure: AD50

Some solved cases for reference:
# smiles text, measure, value
rows = [
    ("CCCCCN1CC[C@@](C)(c2cccc(O)c2)[C@@H](C)C1", "AD50", "0.37 mg/kg"),
    ("Cc1ccc(CCN2CC[C@@](C)(c3cccc(O)c3)[C@@H](C)C2)cc1", "AD50", "> 1.25 mg/kg"),
    ("C[C@H]1CN(C)CC[C@@]1(C)c1cccc(O)c1", "AD50", "0.74 mg/kg"),
    ("C=CCN1CC[C@@](C)(c2cccc(O)c2)[C@@H](C)C1", "AD50", "1.3 mg/kg"),
]

Would you kindly look at the next entry?
Ask: Fill in the blank: the reported AD50 of C[C@H]1CN(CCc2ccncc2)CC[C@@]1(C)c1cccc(O)c1 is ____.
Reply: > 1.25 mg/kg

###

Collected AD50 values appear next to each entry.
- study system: Kappa-type opioid receptor (Rattus norvegicus) (UniProt P34975)
- Sequence (P34975 whole entry): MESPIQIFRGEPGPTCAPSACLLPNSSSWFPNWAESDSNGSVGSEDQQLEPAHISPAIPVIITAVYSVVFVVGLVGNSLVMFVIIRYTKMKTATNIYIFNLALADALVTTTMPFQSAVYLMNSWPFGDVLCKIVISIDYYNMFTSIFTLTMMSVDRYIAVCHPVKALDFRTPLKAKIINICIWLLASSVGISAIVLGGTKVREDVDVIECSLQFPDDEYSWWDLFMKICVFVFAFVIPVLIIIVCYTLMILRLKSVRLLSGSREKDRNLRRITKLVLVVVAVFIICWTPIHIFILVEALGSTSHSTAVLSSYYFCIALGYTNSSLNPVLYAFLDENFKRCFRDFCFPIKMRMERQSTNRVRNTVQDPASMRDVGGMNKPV
- assay info: Tested for the antagonism of kappa opioid receptor diuresis at a dose of 0.08 mg/kg subcutaneously
- Type: functional, organism-based
- Parameters: dose 0.08 mg/kg
Give the quantity in mg/kg, number only.

Some solved cases for reference:
# molecule, measure, uom, value
rows = [
    ("Cc1ccccc1CCN1CC[C@@](C)(c2cccc(O)c2)[C@@H](C)C1", "AD50", "mg/kg", 0.5),
    ("C[C@H]1CN(CC(O)c2ccccc2)CC[C@@]1(C)c1cccc(O)c1 (some centres undefined)", "AD50", "mg/kg", 6.9),
    ("C[C@H]1CN(CCC(=O)c2ccccc2)CC[C@@]1(C)c1cccc(O)c1 (stereo in doubt; 6)", "AD50", "mg/kg", 3.2),
]

Would you kindly look at the next entry?
Ask: Fill in the blank: the reported AD50 of C[C@H]1CN(CCc2ccccc2)CC[C@@]1(C)c1cccc(O)c1 is ____.
Reply: 1.8

###

- study system: Mu-type opioid receptor (Rattus norvegicus, UniProt P33535)
- Sequence (P33535 whole entry): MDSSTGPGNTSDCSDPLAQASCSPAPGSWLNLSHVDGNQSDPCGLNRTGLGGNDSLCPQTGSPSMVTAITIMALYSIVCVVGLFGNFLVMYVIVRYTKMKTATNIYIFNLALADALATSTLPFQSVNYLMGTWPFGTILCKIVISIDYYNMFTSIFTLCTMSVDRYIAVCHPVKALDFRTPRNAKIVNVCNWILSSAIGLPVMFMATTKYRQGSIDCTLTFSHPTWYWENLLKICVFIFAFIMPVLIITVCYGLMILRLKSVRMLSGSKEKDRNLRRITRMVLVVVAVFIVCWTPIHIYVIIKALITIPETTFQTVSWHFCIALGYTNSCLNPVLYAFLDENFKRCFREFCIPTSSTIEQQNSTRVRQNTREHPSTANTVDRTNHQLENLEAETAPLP
- assay info: Binding affinity towards mu-opioid receptor by displacement of [3H]NAL at 10 nM from rat brain homogenates
- Assay type: tissue-based
Flag rule - Ki less than 50 nM flags condition met; the remaining entries get condition not met.

Ask: Does this molecule meet the criterion Ki < 50 nM? C[C@H]1CN(Cc2ccoc2)CC[C@@]1(C)c1cccc(O)c1
Reply: condition not met

Ask: Now consider Cc1ccc(CCN2CC[C@@](C)(c3cccc(O)c3)[C@@H](C)C2)cc1 and answer again.
Reply: condition not met

Ask: Now consider C[C@H]1CN(CCCc2cccc(Cl)c2)CC[C@@]1(C)c1cccc(O)c1 and answer again.
Reply: condition not met

Ask: Now consider C[C@H]1CN(CCCCc2cccs2)CC[C@@]1(C)c1cccc(O)c1 and answer again.
Reply: condition met

###

- study system: Kappa-type opioid receptor (Mus musculus) (UniProt P33534)
- Sequence (P33534 whole entry): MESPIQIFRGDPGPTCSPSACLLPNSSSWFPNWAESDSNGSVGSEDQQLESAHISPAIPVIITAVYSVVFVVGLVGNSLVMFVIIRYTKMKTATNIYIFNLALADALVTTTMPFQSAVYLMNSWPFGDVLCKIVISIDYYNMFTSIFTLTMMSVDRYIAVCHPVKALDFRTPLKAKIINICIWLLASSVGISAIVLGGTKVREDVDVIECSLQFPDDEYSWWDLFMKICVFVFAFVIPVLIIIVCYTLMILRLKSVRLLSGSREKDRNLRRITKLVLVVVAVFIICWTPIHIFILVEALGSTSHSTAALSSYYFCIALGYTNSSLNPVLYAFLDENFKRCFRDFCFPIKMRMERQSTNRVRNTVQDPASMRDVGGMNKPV
- assay info: Antagonism of opioid analgesia using a mouse writhing model to block U-50,488 ([…]) induced kappa-opioid receptor subcutaneously
- Type: functional, organism-based
measure: AD50

Some solved cases for reference:
# smiles text, study system, value
records = [
    ("C[C@H]1CN(CCc2ccncc2)CC[C@@]1(C)c1cccc(O)c1", "Kappa-type opioid receptor (Mus musculus) (UniProt P33534)", "> 1.25 mg/kg"),
    ("C=CCN1CC[C@@](C)(c2cccc(O)c2)[C@@H](C)C1", "Kappa-type opioid receptor (Mus musculus) (UniProt P33534)", "> 10 mg/kg"),
]

Would you kindly look at the next entry?
Ask: Fill in the blank: the reported AD50 of C[C@H]1CN(CCCc2cccc(Cl)c2)CC[C@@]1(C)c1cccc(O)c1 is ____.
Reply: > 1.25 mg/kg

###

- study system: Kappa-type opioid receptor (Cavia porcellus, UniProt P41144)
- Sequence (P41144 whole entry): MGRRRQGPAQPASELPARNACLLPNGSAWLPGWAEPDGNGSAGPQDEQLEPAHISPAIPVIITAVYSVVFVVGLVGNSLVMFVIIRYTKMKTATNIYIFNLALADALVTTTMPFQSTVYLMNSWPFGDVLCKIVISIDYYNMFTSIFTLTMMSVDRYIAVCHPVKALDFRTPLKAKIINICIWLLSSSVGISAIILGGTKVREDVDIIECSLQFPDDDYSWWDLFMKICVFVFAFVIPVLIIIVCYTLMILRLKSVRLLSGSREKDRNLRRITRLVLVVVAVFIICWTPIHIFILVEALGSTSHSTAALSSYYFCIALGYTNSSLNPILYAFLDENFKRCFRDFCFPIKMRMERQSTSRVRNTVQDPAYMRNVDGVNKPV
- assay info: Binding affinity towards kappa-opioid receptor by displacement of [3H]-EKC at from guinea pig cortical tissue
Collected pKi values appear next to each entry.
Interpret pKi as the negative base-10 log of the concentration measured in mol/L.

# compound, study system, measure, value
data = [
    ("C[C@@H]1CN(CCCc2cccs2)CC[C@]1(C)c1cccc(O)c1", "Kappa-type opioid receptor (Cavia porcellus, UniProt P41144)", "pKi", 7.89),
]

Ask: Fill in the blank: the reported pKi of C[C@H]1CN(CCCc2cccs2)CC[C@@]1(C)c1cccc(O)c1 (stereo in doubt; 41) is ____.
Reply: 8.21

Ask: Now consider C[C@H]1CN(CCCOc2ccccc2)CC[C@@]1(C)c1cccc(O)c1 and answer again.
Reply: 7.21

Ask: Now consider C[C@H]1CN(CCC(O)c2cccs2)CC[C@@]1(C)c1cccc(O)c1 (stereo partly specified) and answer again.
Reply: 7.93

Ask: Now consider C[C@H]1CN(CCOc2ccccc2)CC[C@@]1(C)c1cccc(O)c1 and answer again.
Reply: 7.24

Ask: Now consider CCN1CC[C@@](C)(c2cccc(O)c2)[C@@H](C)C1 and answer again.
Reply: 7.74

Hey, just so you know, these numbers are from ChEMBL document CHEMBL1126828.
